- System: LNCaP
- assay-comment: Cytotoxicity against human LNcaP cells after 48 hrs by SRB assay
- Assay type: functional
metric-name: GI50 (µM)

• C/C=C1\NC(=O)[C@H](Cc2ccccc2)NC(=O)[C@@H](C(C)C)NC(=O)[C@@H]([C@H](C)CC)NC(=O)[C@H](NC(=O)[C@H](NC(=O)[C@H](CCCN)NC(=O)[C@H]2CCCN2C(=O)[C@H](NC(=O)[C@@H](NC(=O)[C@@H](NC(=O)[C@H](NC(=O)CCCCCC)C(C)C)[C@@H](C)O)C(C)C)C(C)C)[C@H](C)CC)[C@H](C)OC(=O)[C@H](C(C)C)NC1=O = 1.09
• C/C=C1\NC(=O)[C@H](Cc2ccccc2)NC(=O)[C@@H](C(C)C)NC(=O)[C@@H]([C@H](C)CC)NC(=O)[C@H](NC(=O)[C@H](NC(=O)[C@H](CCCN)NC(=O)[C@H]2CCCN2C(=O)[C@H](NC(=O)[C@@H](NC(=O)[C@@H](NC(=O)[C@H](NC(=O)CCCNC(=N)N)C(C)C)[C@@H](C)O)C(C)C)C(C)C)[C@H](C)CC)[C@H](C)OC(=O)[C@H](C(C)C)NC1=O = 3.93
• C/C=C1\NC(=O)[C@H](Cc2ccccc2)NC(=O)[C@@H](C(C)C)NC(=O)[C@@H]([C@H](C)CC)NC(=O)[C@H](NC(=O)[C@H](NC(=O)[C@H](CCCN)NC(=O)[C@H]2CCCN2C(=O)[C@H](NC(=O)[C@@H](NC(=O)[C@@H](NC(=O)[C@H](NC(=O)CCCC(C)C)C(C)C)[C@@H](C)O)C(C)C)C(C)C)[C@H](C)CC)[C@H](C)OC(=O)[C@H](C(C)C)NC1=O [KAHALALIDE F] = 0.96
